Source of measurements: the nanobody polyreactivity screen of Harvey et al. (2022)

protocolNotes: yeast display, Sf9 membrane polyspecificity reagent, FACS + sequencing; frameworks hold sequencing errors
endpointName: polyreactivity (PSR sort gate)

Worked examples, 6 sequences total:
biosequence	polyreactivity (PSR sort gate)
QVQLVESGGGLVQAGGSLRLSCAASGSTFSLYARGWYRQAPGKETELVAAITRGGNTYYADSVKGRFTISRDNAKNTVYLQMNSLKPEDTAVYYCNAYYYQFRGIRVSGGYWGQGTQVTVSS	high polyreactivity
QVQLVESGGGLVQAGGSLRLSCAASGRTFVRYAMGWYRQAPGKERELVASIRTGGSTNYADSVKGRFTISRDNAKNTVYLQMNSLKPEDTAVYYCAAPRTYRPWGRMDYWGQGTQVTVSS	high polyreactivity
QVQLVESGGGLVQAGGSLRLSCAASGRIFQSNVMGWYRQAPGKERELVAGISTSGGSTYYADSVKGRFTISRDYAKNTVYLQMNSLKPEDTAVYYCAKDPSAVKVPYGYPVIKKTYNSWGQGTQVTVSS	low polyreactivity
QVQLVESGGGLVQAGGSLRLSCAASGRTFYYYAMGWYRQAPGKERELVAAISSSTGRTYYADSVKGRFTISRDNAKNTVYLQMNSLKPEDTAVYYCAKYRVFGYQFDYWGQGTQVTVSS	high polyreactivity
QVQLVESGGGLVQAGGSLRISCAASGSIFDRNAMGWYRQAPGKERELVAGISSGGGTNYADSVKGRFTISRDNAKNTVYFQMNSLKPEDTAVYYCAVYRYLSNRVKYDYWGQGTQVTVSS	low polyreactivity
QVQLEESGGGLVQAGGSLRLSCAASGSICYYYARGWYRQAPGKERELVASITSGGRTYYADSVKGRFTISRDNAKNTVYLQMNSLKPEDTAVYYCAAQRIWLGDYWGQGTQVTVSS	high polyreactivity

State, in one line, measured polyreactivity (PSR sort gate) of QVQLVESGGRLVQARGSLRLSCAASGSIFATYVMGWYRQAPGKERELVATITYSGDSTYYADSVKGRFTISRDNAKNTVYLQMNSVKPEDTAVYYCAADYFTLYPYRGFDYWGQGTQVTVSS
low polyreactivity

State, in one line, measured polyreactivity (PSR sort gate) of QVQLVESGGGLVQAGGSLLLSCAASGSILSKNAMGWYRQAPGKDRELVAAITWSGGSTYYADSVKGRFTISRDNAKNTVYLQMNSLKPEDTADYSCAADLDWSPQFGLPYDYWGQGTQVTVSS
low polyreactivity

State, in one line, measured polyreactivity (PSR sort gate) of QVQLEESGGGLVQAGGSLRLSCAASGITFDFNAKGWYRQAPGTERELVAAIRNRGGSTYYADSVKGRFTISRDNAKNTVYLQMHSLKPVDTAVYYCNVDLWPFVYSWWSYDYWGQGTQVTVSS
high polyreactivity

State, in one line, measured polyreactivity (PSR sort gate) of QVQLVESGGGLVQAGGSLRLSCAASGRIFHGNAMGWYRQAPGKERELVAAITSGGRTFYADSVKGRFTISRDNAKNTVYLQMNSLKPEDTAVYYCNAPSIAGYAEYNSHDYWGQGTQVTVSS
high polyreactivity

State, in one line, measured polyreactivity (PSR sort gate) of QVQLVESGGGLVQAGGSLRLSCAASGSTFTWNGMGWYRQAPGKERELVATISYGGGRTYYADSVKGRFTISRDNAKNTVYLQMNSLKPEDTAVYYCAADFTRYTQVHALRLSEYWGQGTQVTVSS
low polyreactivity
